Target: Heat shock factor protein 1 (Mus musculus, UniProt P38532)
Sequence (P38532 whole entry): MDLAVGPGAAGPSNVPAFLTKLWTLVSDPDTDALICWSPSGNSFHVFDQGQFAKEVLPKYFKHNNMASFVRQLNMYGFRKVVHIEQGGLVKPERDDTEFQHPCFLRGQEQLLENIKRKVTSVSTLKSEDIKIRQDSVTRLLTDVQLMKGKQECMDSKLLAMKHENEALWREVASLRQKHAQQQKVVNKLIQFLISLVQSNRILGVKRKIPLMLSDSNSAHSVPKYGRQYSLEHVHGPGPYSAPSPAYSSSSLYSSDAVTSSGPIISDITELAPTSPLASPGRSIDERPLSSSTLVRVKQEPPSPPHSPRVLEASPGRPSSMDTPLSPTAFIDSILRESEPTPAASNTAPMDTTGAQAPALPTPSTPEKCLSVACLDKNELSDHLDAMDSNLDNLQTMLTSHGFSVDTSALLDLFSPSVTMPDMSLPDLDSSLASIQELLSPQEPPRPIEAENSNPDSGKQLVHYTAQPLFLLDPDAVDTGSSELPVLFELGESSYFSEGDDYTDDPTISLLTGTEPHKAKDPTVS
Experiment: HSF1 potentiators in luciferase reporter cells, confirmation, cell-based, NIH3T3, luminescence, dose retest (AID 435004);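 also: stress induced by proteasome inhibitor MG132 added 30 min after compound; luciferase reporter driven by HSF1 response element in NIH3T3 cells; actives raise luminescence as potentiators of the MG132 stress response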
Type: functional
The source made the active and inactive calls. Rule as the data show it: actives have a measured EC50 and inactives only a lower limit.
Outcomes: active, inactive

> print(dat)
                                   molecule  class.name
1        FC(F)(F)c1cccc(NC(S)=NCc2ccccn2)c1    inactive
2  COc1ccc(N2C(=O)CC(Sc3nnnn3-c3ccc(F)cc3)C2=O)cc1 (stereo not given)      active
3  CC1CC(C)(C)N(C(=O)NC2CCCCC2)c2ccccc21 (stereo not given)    inactive
4          CCNC(=S)N/N=C/c1ccc(-c2ccccc2)o1    inactive
5  COc1ccc(NC(=O)c2[nH]c(C)c(C(C)=O)c2C)cc1S(=O)(=O)Nc1ccc(Br)cc1    inactive
6  Cc1ccc(C2=NN(C(=O)c3cccs3)C(c3ccccc3O)C2)cc1 (stereo not given)    inactive
7  BrC(/C=C\c1ccccc1)=N/Nc1nc(N2CCOCC2)nc(N2CCOCC2)n1    inactive
8  CN(C)c1nc(C=C(C#N)C#N)c(Cl)n1-c1ccc(F)cc1      active
9  Cc1ccccc1CC1(CO)CCCN(C(=O)c2ccccc2Cl)C1 (stereo not given)    inactive

Cited source: ChEMBL document CHEMBL1201862
